molecular target: mouse Peroxisome Proliferator-activated Receptor gamma (PPARg), Pparg (gene 19016); assay: ATG_mPPARg_XSP2: Attagene TRANS-FACTORIAL Multi-Species (XSP2) HepG2 Assay for mouse Peroxisome Proliferator-activated Receptor gamma (PPARg) (AID 2283830);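 further: hits are gains in reporter mRNA above DMSO so AC50 marks activation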
Results filed as inconclusive are left out. Activity calls are given as the source filed them. How the source made its calls: active means hit-call score of the fitted dose curve at least 0.9, where 1 is the maximum; inconclusive means response in the unintended direction; inactive means score below 0.9.
Reply using exactly one outcome from true (1) for active, false (0) for inactive

Field: example entries. Status: answers known.
Q: Please let me know the test result on file for C=C1C[C@H]2[C@@H]3C=C(C)C4=CC(=O)CC[C@]4(C)[C@H]3CC[C@]2(C)[C@@]1(OC(C)=O)C(C)=O .
A: false (0)

Q: Please let me know the test result on file for CC(CCC(=O)O)(c1ccc(O)cc1)c1ccc(O)cc1 .
A: false (0)

Q: Please let me know the test result on file for Oc1ccc(-c2ccccc2)c(Cl)c1 .
A: true (1)

Q: Please let me know the test result on file for CC(C)(C)NC(=O)[C@H]1CC[C@H]2[C@@H]3CC[C@H]4NC(=O)C=C[C@]4(C)[C@H]3CC[C@]12C .
A: false (0)

Switching to the query record.
Q: Please let me know the test result on file for COc1ccc(-c2coc3cc(O)cc(O)c3c2=O)cc1 .
A: false (0)

====

read-out: Interferon-gamma inducible Protein 10 (IP10), CXCL10 (gene 3627); assay: BSK_KF3CT_IP10: BioMAP Diversity Plus: KF3CT Assay for Interferon-gamma inducible Protein 10 (IP10) Biomarker Activity (AID 2283068); conditions: primary human keratinocytes with fibroblasts; actives raise or lower the signal
The source made the active and inactive calls. Rule for the calls: active = hit-call score of the fitted dose curve at least 0.9, where 1 is the maximum; inactive = score below 0.9.
Reply using exactly one outcome from active, inactive

Q: Please let me know the test result on file for CCCCCCCCCCCC(=O)N(C)CC(=O)O .
A: inactive

Q: Please let me know the test result on file for CCOC(=O)/C=C\C(=O)OCC .
A: inactive

Q: Please let me know the test result on file for Cc1c(O)cccc1O .
A: inactive

Q: Please let me know the test result on file for O=C(Cl)c1c(Cl)c(Cl)c(C(=O)Cl)c(Cl)c1Cl .
A: inactive

Q: Please let me know the test result on file for CCc1cccc(C)c1N(C(=O)CS(=O)(=O)O)C(C)COC (stereo not given) .
A: inactive

Q: Please let me know the test result on file for CC/C=C\CCOC(=O)c1ccccc1O .
A: active

Next:
Q: Please let me know the test result on file for CCCCCCCCC(CO)CCCCCC (stereo not given) .
A: inactive

Q: Please let me know the test result on file for CCNc1nc(NC(C)(C)C)nc(OC)n1 .
A: inactive

Q: Please let me know the test result on file for CC1=CC=C(C(C)C)CC1 .
A: inactive

Q: Please let me know the test result on file for CCOC(=O)C1=NOC(c2ccccc2)(c2ccccc2)C1 .
A: inactive

Q: Please let me know the test result on file for CCN1CN(CC)CN(CC)C1 .
A: inactive

Q: Please let me know the test result on file for O=C1CCCCCCCCCCCN1 .
A: inactive

Q: Please let me know the test result on file for Cc1ccc([N+](=O)[O-])cc1N .
A: inactive

Q: Please let me know the test result on file for CCCCCCCO .
A: inactive

Q: Please let me know the test result on file for Nc1ccc(C(=O)O)cc1 .
A: inactive

====

biological target: Retinoic acid receptor RXR-alpha (Homo sapiens) (UniProt P19793); assay: OT_NURR1_NURR1RXRa_1440: Odyssey Thera (OT) 24-hour HEK293T Protein Complementation Assay for Nurr1/retinoid X receptor (RXR) (AID 2283386)
Sequence (P19793 whole entry, looked up): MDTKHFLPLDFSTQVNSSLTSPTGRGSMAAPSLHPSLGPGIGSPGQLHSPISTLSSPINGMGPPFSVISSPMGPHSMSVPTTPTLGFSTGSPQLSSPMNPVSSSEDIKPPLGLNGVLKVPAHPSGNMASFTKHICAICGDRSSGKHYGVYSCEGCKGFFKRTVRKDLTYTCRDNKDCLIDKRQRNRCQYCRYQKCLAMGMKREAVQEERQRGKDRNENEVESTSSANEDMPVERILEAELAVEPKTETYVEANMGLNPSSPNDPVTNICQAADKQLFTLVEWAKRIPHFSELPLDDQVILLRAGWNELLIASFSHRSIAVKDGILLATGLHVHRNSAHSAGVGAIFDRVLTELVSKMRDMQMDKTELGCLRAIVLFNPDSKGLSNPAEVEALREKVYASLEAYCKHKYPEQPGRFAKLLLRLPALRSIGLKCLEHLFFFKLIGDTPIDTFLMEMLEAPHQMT
Records with an inconclusive call do not appear. Calls of active or inactive are those of the source. Rule for the calls: active = hit-call score of the fitted dose curve at least 0.9, where 1 is the maximum; inconclusive = response in the unintended direction; inactive = score below 0.9.
Reply using exactly one outcome from 1 (active), 0 (inactive)

Field: example entries. Status: answers known.
Q: Please let me know the test result on file for Cc1c(C(=O)c2c[nH]n(C)c2=O)ccc(S(C)(=O)=O)c1C1=NOCC1 .
A: 0

Q: Please let me know the test result on file for O=C(O)c1cc(O)c2ccccc2c1O .
A: 0

Next:
Q: Please let me know the test result on file for O=C(O)CC(C(=O)O)S(=O)(=O)O (centres undefined) .
A: 0

Q: Please let me know the test result on file for O=C(OCc1ccccc1)c1ccc(O)cc1 .
A: 1

Q: Please let me know the test result on file for CCCCCC[C@@H](O)C/C=C\CCCCCCCC(=O)OCC(O)CO (some centres undefined) .
A: 0

Q: Please let me know the test result on file for O=C(O)CCC(=O)O .
A: 0

Q: Please let me know the test result on file for CCOC(=O)c1ccccc1C .
A: 0

Q: Please let me know the test result on file for O=C(O)c1ccc2c(c1)C(=O)OC2=O .
A: 0

====

Biological target: X-box-binding protein 1 (Homo sapiens) (UniProt P17861)
Sequence (P17861 whole entry, looked up): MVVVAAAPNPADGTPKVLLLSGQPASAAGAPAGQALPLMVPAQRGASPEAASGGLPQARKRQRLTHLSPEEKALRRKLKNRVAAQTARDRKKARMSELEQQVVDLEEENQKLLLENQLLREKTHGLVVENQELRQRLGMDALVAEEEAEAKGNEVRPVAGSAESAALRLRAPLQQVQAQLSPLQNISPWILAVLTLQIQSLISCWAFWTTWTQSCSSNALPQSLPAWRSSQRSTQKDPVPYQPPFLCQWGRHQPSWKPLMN
Experiment: ATG_Xbp1_CIS: Attagene CIS-FACTORIAL HepG2 Assay for human X-box Binding Protein 1 (XBP1) (AID 2282972)
Conditions: HepG2 XBP1 cis-element reporter, Attagene multiplex; actives raise or lower the signal
Procedure: ATG_CIS is a cell-based, multiplexed-readout assay that uses HepG2, a human liver cell line, with measurements taken at 24 hours after chemical dosing in a 24-well plate.ATG_Xbp1_CIS is one of 52 assay component(s) measured or calculated from the ATG_CIS assay. […] This assay endpoint, ATG_Xbp1_CIS, was analyzed with bidirectional fitting relative to DMSO as the negative control and baseline of activity. […]
Activity calls are given as the source filed them. The calls were made as follows: active = hit-call score of the fitted dose curve at least 0.9, where 1 is the maximum; inactive = score below 0.9.
Reply using exactly one outcome from active, inactive

Field: example entries. Status: answers known.
Q: Please let me know the test result on file for N#CC1(N)CCCCC1 .
A: inactive

Q: Please let me know the test result on file for O=C(O)CC(C(=O)O)S(=O)(=O)O (stereo not given) .
A: inactive

Q: Please let me know the test result on file for CC1=CP(=O)(c2ccccc2)CC1 (stereo not given) .
A: inactive

Q: Please let me know the test result on file for CCC1(C)C(=O)N(Cl)C(=O)N1Cl (stereo not given) .
A: active

Q: Please let me know the test result on file for CCCCCC(=O)OCC .
A: inactive

Next:
Q: Please let me know the test result on file for CC(C)C(=O)OCCc1ccccc1 .
A: inactive

Q: Please let me know the test result on file for C=CCCCCCCCCOC(C)=O .
A: inactive

Q: Please let me know the test result on file for C=Cc1ccc(OC(C)=O)cc1 .
A: active

Q: Please let me know the test result on file for CCCC(CC)c1ccccc1 (stereo not given) .
A: inactive

Q: Please let me know the test result on file for O=C1CCCCCCCCCCC1 .
A: inactive

Q: Please let me know the test result on file for O=c1c(O)c(-c2ccc(O)cc2O)oc2cc(O)cc(O)c12 .
A: inactive

Q: Please let me know the test result on file for Cn1cccc1 .
A: inactive

Q: Please let me know the test result on file for CC1=NN(c2ccc(S(=O)(=O)O)cc2)C(=O)C1N=Nc1ccccc1 (stereo not given) .
A: inactive

Q: Please let me know the test result on file for COC(=O)c1ccc(C(=O)OC)c(C(=O)OC)c1 .
A: inactive

Q: Please let me know the test result on file for CC1=C(O)C(=O)C(C)O1 (stereo not given) .
A: inactive

====

assay: ATG_PXRE_CIS: Attagene CIS-FACTORIAL HepG2 Assay for human Pregnane X Receptor Element (PXRE) (AID 2282957); settings: HepG2 Attagene CIS-FACTORIAL PXRE reporter, mRNA; actives raise or lower the signal
The source made the active and inactive calls. The calls were made as follows: active = hit-call score of the fitted dose curve at least 0.9, where 1 is the maximum; inactive = score below 0.9.
Reply using exactly one outcome from active, inactive

Field: example entries. Status: answers known.
Q: Please let me know the test result on file for O=C(O)C(F)(F)C(F)(F)C(F)(F)C(F)(F)C(=O)O .
A: inactive

Q: Please let me know the test result on file for Cn1cccc1 .
A: inactive

Q: Please let me know the test result on file for CCCC1CCCC(=O)O1 (configuration not stated) .
A: inactive

Q: Please let me know the test result on file for C=CC(=O)O[C@H]1C[C@@H]2CC[C@@]1(C)C2(C)C .
A: active

Q: Please let me know the test result on file for O=C1CCCCC1C1CCCCC1 (configuration not stated) .
A: active

Next:
Q: Please let me know the test result on file for CC(C)(C)C1CCC(=O)CC1 .
A: inactive

Q: Please let me know the test result on file for CCCCc1ccc(Cl)cc1 .
A: inactive

Q: Please let me know the test result on file for CCc1cccc(C)c1N(C(=O)CS(=O)(=O)O)C(C)COC (configuration not stated) .
A: active

Q: Please let me know the test result on file for C=C(C)[C@@H]1CC=C(C)CC1 .
A: inactive

Q: Please let me know the test result on file for CCCCNC(=S)NCCCC .
A: active

Q: Please let me know the test result on file for N#Cc1ccc(C2CCCc3cncn32)cc1 (configuration not stated) .
A: active

Q: Please let me know the test result on file for O=C1CCCN1C1CCCCC1 .
A: active

Q: Please let me know the test result on file for Nc1cccc(N)n1 .
A: inactive

Q: Please let me know the test result on file for NNS(=O)(=O)c1ccc(Oc2ccc(S(=O)(=O)NN)cc2)cc1 .
A: inactive

Q: Please let me know the test result on file for c1ccc2sc(SSN3CCOCC3)nc2c1 .
A: inactive

Q: Please let me know the test result on file for Cc1c[nH]c(=O)[nH]c1=O .
A: inactive
